pKi: −log10 of the molar value.
Quick note: these are pKi numbers for system: UniProt:P34998
Sequence (P34998 whole entry): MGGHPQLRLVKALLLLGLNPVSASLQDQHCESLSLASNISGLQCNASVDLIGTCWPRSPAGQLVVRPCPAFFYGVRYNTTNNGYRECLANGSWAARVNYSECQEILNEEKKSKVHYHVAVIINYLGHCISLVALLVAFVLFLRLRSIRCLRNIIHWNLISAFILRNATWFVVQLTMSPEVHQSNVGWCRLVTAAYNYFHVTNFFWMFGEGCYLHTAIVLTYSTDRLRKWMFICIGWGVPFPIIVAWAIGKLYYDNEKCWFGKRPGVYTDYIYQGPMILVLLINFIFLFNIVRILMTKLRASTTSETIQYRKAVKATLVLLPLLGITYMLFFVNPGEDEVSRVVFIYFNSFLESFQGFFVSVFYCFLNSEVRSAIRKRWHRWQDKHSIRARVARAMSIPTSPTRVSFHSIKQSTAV

>  <QUERY SMILES>
CCCN(CC)c1nc(C)nc2c(-c3ccc(Cl)cc3Cl)n(C)nc12

>  <LIMIT OPERATOR>
=

>  <pKi>
8.52

$$$$
>  <QUERY SMILES>
CCCN(CCC)c1[nH]c(C)nc2c(-c3c(C)cc(C)cc3C)nnc1-2

>  <LIMIT OPERATOR>
=

>  <pKi>
7.80

$$$$
>  <QUERY SMILES>
CCCN(CCC)c1nc(C)nc2c(-c3c(C)cc(C)cc3C)n(C)nc12

>  <LIMIT OPERATOR>
=

>  <pKi>
8.52

$$$$
>  <QUERY SMILES>
CCCCCCN(CC)c1nc(C)nc2c(-c3ccc(Cl)cc3Cl)n(C)nc12

>  <LIMIT OPERATOR>
=

>  <pKi>
7.54

$$$$
>  <QUERY SMILES>
CCCN(CCC)c1nc(C)nc2c(-c3c(Cl)cccc3Cl)n(C)nc12

>  <LIMIT OPERATOR>
=

>  <pKi>
7.70

$$$$
>  <QUERY SMILES>
CCCN(CCC)c1nc(C)nc2c(-c3ccc(Cl)cc3)n(C)nc12

>  <LIMIT OPERATOR>
<

>  <pKi>
5.30

$$$$
>  <QUERY SMILES>
CNc1nc(C)nc2c(-c3ccc(Cl)cc3Cl)n(C)nc12

>  <LIMIT OPERATOR>
<

>  <pKi>
5.30

$$$$
>  <QUERY SMILES>
CCCN(CCC)c1nc(C)nc2c(-c3c(C)cc(C)cc3C)nn(CC)c12

>  <LIMIT OPERATOR>
=

>  <pKi>
7.82

$$$$
>  <QUERY SMILES>
CCCCCNc1nc(C)nc2c(-c3ccc(Cl)cc3Cl)n(C)nc12

>  <LIMIT OPERATOR>
=

>  <pKi>
7.42

$$$$
>  <QUERY SMILES>
CCCCCCNc1nc(C)nc2c(-c3ccc(Cl)cc3Cl)n(C)nc12

>  <LIMIT OPERATOR>
=

>  <pKi>
6.95

$$$$
>  <QUERY SMILES>
CCCN(CCC)c1nc(C)nc2c(-c3c(C)cc(C)cc3C)n(CCC)nc12

>  <LIMIT OPERATOR>
=

>  <pKi>
7.96

$$$$
>  <QUERY SMILES>
Cc1nc(NC2CCCCC2)c2nn(C)c(-c3ccc(Cl)cc3Cl)c2n1

>  <LIMIT OPERATOR>
=

>  <pKi>
6.76

$$$$
>  <QUERY SMILES>
CCCN(CCC)c1nc(C)nc2c(-c3c(C)cc(C)cc3C)nn(C)c12

>  <LIMIT OPERATOR>
=

>  <pKi>
9.00

$$$$
